- Experimental Target: T1, cyno FcRn/b2M (cyno, UniProt Q8SPV9 24-297; Q8SPW0 21-119, biotinylated)
- T1 construct: bought recombinant biotinylated protein (Immunitrack ITF05 or ACRO FCM-C82W5); also called cFcRn; cFcRn/cb2M
- T1 sequence (Q8SPV9 24-297 limits assumed, chain 1 of 2): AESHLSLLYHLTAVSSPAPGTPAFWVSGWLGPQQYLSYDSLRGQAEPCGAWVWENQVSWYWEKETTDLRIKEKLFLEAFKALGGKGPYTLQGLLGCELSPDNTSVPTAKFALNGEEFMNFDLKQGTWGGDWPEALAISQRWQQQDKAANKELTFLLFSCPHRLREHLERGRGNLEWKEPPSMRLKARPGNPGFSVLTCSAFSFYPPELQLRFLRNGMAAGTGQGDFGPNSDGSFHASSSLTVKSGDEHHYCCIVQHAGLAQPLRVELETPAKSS
- T1 sequence (Q8SPW0 21-119 limits assumed, chain 2 of 2): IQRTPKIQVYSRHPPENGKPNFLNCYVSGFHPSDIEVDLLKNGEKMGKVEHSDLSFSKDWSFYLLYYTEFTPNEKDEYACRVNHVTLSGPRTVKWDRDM
- Assay Procedure: SPR pH 7.4;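 also: surface plasmon resonance kinetics, periplasmic extracts diluted 1:10 flowed over immobilized target at 25 °C, 120 s association then 600–3600 s dissociation, buffer with 150 mM NaCl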
Measurement Name: koff (s⁻¹)

Solved cases (2 shown):
T0263018B11 T57S (VHH, name in Kabat numbering, FLAG3-His6 tagged) VHH: EVQLVESGGGVVQPGGSLRLSCAASGFTFSSYAMYWVRQAPGKGLEWVSAISSGGGSSDYADSVKGRFTISRDNSKNTLYLQMNSLRPEDTALYYCAADTLYTSLTWYSYWGQGTLVTVSS = 0.029
T0263018B11 S30G (VHH, name in Kabat numbering, FLAG3-His6 tagged) VHH: EVQLVESGGGVVQPGGSLRLSCAASGFTFGSYAMYWVRQAPGKGLEWVSAISSGGGSTDYADSVKGRFTISRDNSKNTLYLQMNSLRPEDTALYYCAADTLYTSLTWYSYWGQGTLVTVSS = 0.019

A = T0263018B11 A33T (VHH, name in Kabat numbering, FLAG3-His6 tagged) VHH: EVQLVESGGGVVQPGGSLRLSCAASGFTFSSYTMYWVRQAPGKGLEWVSAISSGGGSTDYADSVKGRFTISRDNSKNTLYLQMNSLRPEDTALYYCAADTLYTSLTWYSYWGQGTLVTVSS
B = T0263018B11 G26L (VHH, name in Kabat numbering, FLAG3-His6 tagged) VHH: EVQLVESGGGVVQPGGSLRLSCAASLFTFSSYAMYWVRQAPGKGLEWVSAISSGGGSTDYADSVKGRFTISRDNSKNTLYLQMNSLRPEDTALYYCAADTLYTSLTWYSYWGQGTLVTVSS
In: Lower koff: A or B ? Please indicate the selected item by its label.
Out: A
(A: 0.0058 s⁻¹, B: 0.054 s⁻¹)
